- Tested on: Escherichia coli
- METHOD_DESCRIPTION: Antibacterial activity against Escherichia coli ATCC 25922 assessed as bacterial growth inhibition
- Type: functional
Attribute: MIC

Here are 3 compounds together with their reported answers.
{"STRUCTURE_SMILES_STRING": "COc1ccc(-n2c3cssc-3c(NC(=O)CCCCC(=O)c3c(O)cc(C)oc3=O)c2=O)c(OC)c1", "OBS_VALUE": "> 128 µg/mL"}
{"STRUCTURE_SMILES_STRING": "COc1ccc(-n2c3cssc-3c(NC(=O)NCCOC(=O)CCCCCCC(=O)c3c(O)cc(C)oc3=O)c2=O)c(OC)c1", "OBS_VALUE": "> 128 µg/mL"}
{"STRUCTURE_SMILES_STRING": "COc1ccc(-n2c3cssc-3c(NC(=O)NCCOC(=O)CCCCC(=O)c3c(O)cc(C)oc3=O)c2=O)c(OC)c1", "OBS_VALUE": "> 64 µg/mL"}

[ask] Recorded MIC for COc1ccc(-n2c3cssc-3c(NC(=O)CCCC(=O)c3c(O)cc(C)oc3=O)c2=O)c(OC)c1 , please?
[reply] > 64 µg/mL
